test system: H9 (acute lymphoblastic leukemia, ALL); assay: Leukemia cell growth inhibition, MTT, 72 h (Example 5); assay type: cell-based, human; conditions: Homo sapiens; 72 h, MTT
Give IC50 for every item shown.
State just the number; it will be interpreted in µg/mL.

Asked: Form field - read-out: IC50; system: H9 (acute lymphoblastic leukemia, ALL); submitted item: COc1ccc2cc1Oc1ccc(cc1)C[C@H]1c3cc(c(OC)cc3CCN1C)Oc1c(OC)c(OC)c(COC(=O)c3ccccc3)c3c1[C@H](C2)N(C)CC3 [BS-TE-224]
Given back: 2.99

Asked: Now this one: COc1ccc2cc1Oc1ccc(cc1)C[C@H]1c3cc(c(OC)cc3CCN1C)Oc1c(OC)c(OC)c(Cn3cccn3)c3c1[C@H](C2)N(C)CC3 [BS-TE-330]
Given back: 2.03

Asked: Now this one: COc1ccc2cc1Oc1ccc(cc1)C[C@H]1c3cc(c(OC)cc3CCN1C)Oc1c(OC)c(OC)c(CN(C)C)c3c1[C@H](C2)N(C)CC3 [BS-TE-341]
Given back: 6.87

Asked: Now this one: COc1ccc2cc1Oc1ccc(cc1)C[C@H]1c3cc(c(OC)cc3CCN1C)Oc1c(OC)c(OC)c(CN3CCCN(C)CC3)c3c1[C@H](C2)N(C)CC3 [BS-TE-356]
Given back: 1.54

Asked: Now this one: COc1ccc2cc1Oc1ccc(cc1)C[C@H]1c3cc(c(OC)cc3CCN1C)Oc1c(OC)c(OC)c(COCCOc3ccccc3)c3c1[C@H](C2)N(C)CC3 [BS-TE-402]
Given back: 0.25

Asked: Now this one: COc1ccc2cc1Oc1ccc(cc1)C[C@H]1c3cc(c(OC)cc3CCN1C)Oc1c(OC)c(OC)c(CN3CCN(C(C)C)CC3)c3c1[C@H](C2)N(C)CC3 [BS-TE-333]
Given back: 1.14

Asked: Now this one: COc1ccc2cc1Oc1ccc(cc1)C[C@H]1c3cc(c(OC)cc3CCN1C)Oc1c(OC)c(OC)c(CN3CCN(CCO)CC3)c3c1[C@H](C2)N(C)CC3 [BS-TE-334]
Given back: 1.3

Asked: Now this one: COc1ccc2cc1Oc1ccc(cc1)C[C@H]1c3cc(c(OC)cc3CCN1C)Oc1c(OC)c(OC)c(CN3CCSCC3)c3c1[C@H](C2)N(C)CC3 [BS-TE-328]
Given back: 1.54

Asked: Now this one: COc1ccc2cc1Oc1ccc(cc1)C[C@H]1c3cc(c(OC)cc3CCN1C)Oc1c(OC)c(OC)c(CN3CCC(O)C3)c3c1[C@H](C2)N(C)CC3 (stereo partly shown) [BS-TE-322]
Given back: 1.08

Asked: Now this one: COc1ccc2cc1Oc1ccc(cc1)C[C@H]1c3cc(c(OC)cc3CCN1C)Oc1c(OC)c(OC)c(COC(=O)c3ccco3)c3c1[C@H](C2)N(C)CC3 [BS-TE-216]
Given back: 2.53

Asked: Now this one: COc1ccc2cc1Oc1ccc(cc1)C[C@H]1c3cc(c(OC)cc3CCN1C)Oc1c(OC)c(OC)c(CNc3nccs3)c3c1[C@H](C2)N(C)CC3 [BS-TE-320]
Given back: 1.98

Asked: Now this one: COc1ccc2cc1Oc1ccc(cc1)C[C@H]1c3cc(c(OC)cc3CCN1C)Oc1c(OC)c(OC)c(CNCc3cccs3)c3c1[C@H](C2)N(C)CC3 [BS-TE-359]
Given back: 1.25

Asked: Now this one: COc1ccc2cc1Oc1ccc(cc1)C[C@H]1c3cc(c(OC)cc3CCN1C)Oc1c(OC)c(OC)c(CN3CCCC3)c3c1[C@H](C2)N(C)CC3 [BS-TE-305]
Given back: 0.7

Asked: Now this one: COc1ccc2cc1Oc1ccc(cc1)C[C@H]1c3cc(c(OC)cc3CCN1C)Oc1c(OC)c(OC)c(CN3CCC(O)CC3)c3c1[C@H](C2)N(C)CC3 [BS-TE-308]
Given back: 1.7

Asked: Now this one: COCCCNCc1c2c3c(c(OC)c1OC)Oc1cc4c(cc1OC)CCN(C)[C@H]4Cc1ccc(cc1)Oc1cc(ccc1OC)C[C@@H]3N(C)CC2 [BS-TE-340]
Given back: 1.93

Asked: Now this one: COc1ccc2cc1Oc1ccc(cc1)C[C@H]1c3cc(c(OC)cc3CCN1C)Oc1c(OC)c(OC)c(COCc3ccsc3)c3c1[C@H](C2)N(C)CC3 [BS-TE-415]
Given back: 1.71

Asked: Now this one: COc1ccc2cc1Oc1ccc(cc1)C[C@H]1c3cc(c(OC)cc3CCN1C)Oc1c(OC)c(OC)c(CN(C)[C@@H](C)c3ccccc3)c3c1[C@H](C2)N(C)CC3 [BS-TE-317]
Given back: 0.7

Asked: Now this one: COc1ccc2cc1Oc1ccc(cc1)C[C@H]1c3cc(c(OC)cc3CCN1C)Oc1c(OC)c(OC)c(CNCC(C)O)c3c1[C@H](C2)N(C)CC3 (stereo partly shown) [BS-TE-315]
Given back: 2.6

Asked: Now this one: COc1ccc2cc1Oc1ccc(cc1)C[C@H]1c3cc(c(OC)cc3CCN1C)Oc1c(OC)c(OC)c(CNCc3ccco3)c3c1[C@H](C2)N(C)CC3 [BS-TE-350]
Given back: 1.11
